Test system: 616215-338-R-J1-PDC tumor spheroids, viability
ASSAY_SUMMARY: Anticancer human tumor 616215-338-R-J1-PDC patient-derived colon adenocarcinoma cell line growth inhibition [GQUAD]
PROTOCOL_CONDITIONS: curve of first compound; second compound 10 µM; spheroids with HUVEC and MSC
Assign pIC50 to each entry below.
pIC50 is a log-scale quantity: -log10 of the concentration expressed in molar.

INPUT: Could you tell me which pIC50 is on file for CCc1c2c(nc3ccc(O)cc13)-c1cc3c(c(=O)n1C2)COC(=O)[C@]3(O)CC + Cc1[nH]c2ccc(F)cc2c1-c1nc2c3cccnc3c3ncccc3c2[nH]1 ?
OUTPUT: 8.10

INPUT: Could you tell me which pIC50 is on file for COc1ncnc(C2CC2)c1-c1ncc2cnn(Cc3ccc(-c4nc(C(F)(F)F)cn4C(C)C)cc3)c2n1 + CN(C)c1ccc(Nc2c3ccc(NC(=O)CCN4CCCC4)cc3nc3cc(NC(=O)CCN4CCCC4)ccc23)cc1 ?
OUTPUT: 5.03

INPUT: Could you tell me which pIC50 is on file for O=c1[nH]cc(F)c(=O)[nH]1 + Cc1[nH]c2ccc(F)cc2c1-c1nc2c3cccnc3c3ncccc3c2[nH]1 ?
OUTPUT: 6.54

INPUT: Could you tell me which pIC50 is on file for COc1ccc([C@@H](O)c2cc(-c3ncnc4cc(N5CCOCC5)ccc34)c(F)cc2Cl)nn1 + CN(C)c1ccc(Nc2c3ccc(NC(=O)CCN4CCCC4)cc3nc3cc(NC(=O)CCN4CCCC4)ccc23)cc1 ?
OUTPUT: 5.47

###

Tested on: 616215-338-R-J1-PDC tumor spheroids, viability
ASSAY_SUMMARY: Anticancer human tumor 616215-338-R-J1-PDC cell line growth inhibition [GQUAD];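 further: spheroids exposed to agents for 7 days before readout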;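 on viability, T/C: percent viability relative to DMSO vehicle control wells taken as 100%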
PROTOCOL_CONDITIONS: second compound 1 µM; first compound 3.16 µM; stronger effect = lower value; spheroids with HUVEC and MSC
// NB: equality with 20% counts as F; only viability, T/C strictly below is T

INPUT: I wonder whether O=C(NO)c1cnc(N2CCN(S(=O)(=O)c3ccc4ccccc4c3)CC2)nc1 + CN(C)c1ccc(Nc2c3ccc(NC(=O)CCN4CCCC4)cc3nc3cc(NC(=O)CCN4CCCC4)ccc23)cc1 has viability, T/C below 20%. Can you tell?
OUTPUT: T

INPUT: I wonder whether CC(=O)O[C@H]1C(=O)[C@@]2(C)[C@H]([C@H](OC(=O)c3ccccc3)[C@]3(O)C[C@H](OC(=O)[C@H](O)[C@@H](NC(=O)c4ccccc4)c4ccccc4)C(C)=C1C3(C)C)[C@]1(OC(C)=O)CO[C@@H]1C[C@@H]2O + Cc1[nH]c2ccc(F)cc2c1-c1nc2c3cccnc3c3ncccc3c2[nH]1 has viability, T/C below 20%. Can you tell?
OUTPUT: T

INPUT: I wonder whether CC1COCCN1c1cc(C2(O)CC3CCC(C2)O3)c2cnn(-c3ccn[nH]3)c2n1 (stereo not given) + CN(C)c1ccc(Nc2c3ccc(NC(=O)CCN4CCCC4)cc3nc3cc(NC(=O)CCN4CCCC4)ccc23)cc1 has viability, T/C below 20%. Can you tell?
OUTPUT: F

INPUT: I wonder whether C#Cc1c(F)ccc2cc(O)cc(-c3ncc4c(N5CC6CCC(C5)N6)nc(OCC56CCCN5CC(F)C6)nc4c3F)c12 (stereo not given) + CN(C)c1ccc(Nc2c3ccc(NC(=O)CCN4CCCC4)cc3nc3cc(NC(=O)CCN4CCCC4)ccc23)cc1 has viability, T/C below 20%. Can you tell?
OUTPUT: F

INPUT: I wonder whether COc1ccc([C@@H](O)c2cc(-c3ncnc4cc(N5CCOCC5)ccc34)c(F)cc2Cl)nn1 + CN(C)c1ccc(Nc2c3ccc(NC(=O)CCN4CCCC4)cc3nc3cc(NC(=O)CCN4CCCC4)ccc23)cc1 has viability, T/C below 20%. Can you tell?
OUTPUT: F
